Target: T1, CathepsinG, from human neutrophils (human, UniProt P08311 21-244)
T1 sequence (looked up): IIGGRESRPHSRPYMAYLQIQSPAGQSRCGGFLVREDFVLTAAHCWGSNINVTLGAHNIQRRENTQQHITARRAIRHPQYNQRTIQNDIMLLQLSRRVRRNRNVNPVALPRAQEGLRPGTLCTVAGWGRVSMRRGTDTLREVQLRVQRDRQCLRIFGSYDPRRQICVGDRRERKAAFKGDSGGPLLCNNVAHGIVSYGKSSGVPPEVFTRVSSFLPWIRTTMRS
Experiment: cell-based or functional assay
measurement-label: IC50 (nmol)
Give a bare numeral; the unit nmol is implied.

binder	value-units	IC50
XCTKSDPPICT (HELM PEPTIDE1{[Cha].C.T.K.S.D.P.P.I.C.T.[dP].P}$PEPTIDE1,PEPTIDE1,2:R3-10:R3|PEPTIDE1,PEPTIDE1,1:R1-13:R2$$$V2.0; SMILES CC[C@H](C)[C@@H]1NC(=O)[C@@H]2CCCN2C(=O)[C@@H]2CCCN2C(=O)[C@H](CC(=O)O)NC(=O)[C@H](CO)NC(=O)[C@H](CCCCN)NC(=O)[C@H]([C@@H](C)O)NC(=O)[C@@H]2CSSC[C@H](NC1=O)C(=O)N[C@@H]([C@@H](C)O)C(=O)N1CCC[C@@H]1C(=O)N1CCC[C@H]1C(=O)N[C@@H](CC1CCCCC1)C(=O)N2) [Example 34]	nmol	56
XCTKSDPPICD (HELM PEPTIDE1{[O=C([C@@H](N[*:1])C1CCCCC1)[*:2]].C.T.K.S.D.P.P.I.C.D.[dP].P}$PEPTIDE1,PEPTIDE1,2:R3-10:R3|PEPTIDE1,PEPTIDE1,1:R1-13:R2$$$V2.0; SMILES CC[C@H](C)[C@@H]1NC(=O)[C@@H]2CCCN2C(=O)[C@@H]2CCCN2C(=O)[C@H](CC(=O)O)NC(=O)[C@H](CO)NC(=O)[C@H](CCCCN)NC(=O)[C@H]([C@@H](C)O)NC(=O)[C@@H]2CSSC[C@H](NC1=O)C(=O)N[C@@H](CC(=O)O)C(=O)N1CCC[C@@H]1C(=O)N1CCC[C@H]1C(=O)N[C@@H](C1CCCCC1)C(=O)N2) [Example 39]	nmol	38
ICTXSDPPICR (HELM PEPTIDE1{I.C.T.[Nle].S.D.P.P.I.C.R.[dP].P}$PEPTIDE1,PEPTIDE1,2:R3-10:R3|PEPTIDE1,PEPTIDE1,1:R1-13:R2$$$V2.0; SMILES CCCC[C@@H]1NC(=O)[C@H]([C@@H](C)O)NC(=O)[C@@H]2CSSC[C@H](NC(=O)[C@H]([C@@H](C)CC)NC(=O)[C@@H]3CCCN3C(=O)[C@@H]3CCCN3C(=O)[C@H](CC(=O)O)NC(=O)[C@H](CO)NC1=O)C(=O)N[C@@H](CCCNC(=N)N)C(=O)N1CCC[C@@H]1C(=O)N1CCC[C@H]1C(=O)N[C@@H]([C@@H](C)CC)C(=O)N2) [Example 59]	nmol	55
XCTKSDPPICN (HELM PEPTIDE1{[Nle].C.T.K.S.D.P.P.I.C.N.[dP].P}$PEPTIDE1,PEPTIDE1,2:R3-10:R3|PEPTIDE1,PEPTIDE1,1:R1-13:R2$$$V2.0; SMILES CCCC[C@@H]1NC(=O)[C@@H]2CCCN2C(=O)[C@H]2CCCN2C(=O)[C@H](CC(N)=O)NC(=O)[C@@H]2CSSC[C@H](NC1=O)C(=O)N[C@@H]([C@@H](C)O)C(=O)N[C@@H](CCCCN)C(=O)N[C@@H](CO)C(=O)N[C@@H](CC(=O)O)C(=O)N1CCC[C@H]1C(=O)N1CCC[C@H]1C(=O)N[C@@H]([C@@H](C)CC)C(=O)N2) [Example 41]	nmol	49
FCTKSDPPICS (HELM PEPTIDE1{F.C.T.K.S.D.P.P.I.C.S.[dI].P}$PEPTIDE1,PEPTIDE1,2:R3-10:R3|PEPTIDE1,PEPTIDE1,1:R1-13:R2$$$V2.0; SMILES CC[C@@H](C)[C@H]1NC(=O)[C@H](CO)NC(=O)[C@@H]2CSSC[C@H](NC(=O)[C@H](Cc3ccccc3)NC(=O)[C@@H]3CCCN3C1=O)C(=O)N[C@@H]([C@@H](C)O)C(=O)N[C@@H](CCCCN)C(=O)N[C@@H](CO)C(=O)N[C@@H](CC(=O)O)C(=O)N1CCC[C@H]1C(=O)N1CCC[C@H]1C(=O)N[C@@H]([C@@H](C)CC)C(=O)N2) [Example 50]	nmol	89

Now take the following binder into account.
Could you share which IC50 value was measured for FCTKSDPPICS (HELM PEPTIDE1{F.C.T.K.S.D.P.P.I.C.S.[dP].E}$PEPTIDE1,PEPTIDE1,2:R3-10:R3|PEPTIDE1,PEPTIDE1,1:R1-13:R2$$$V2.0; SMILES CC[C@H](C)[C@@H]1NC(=O)[C@@H]2CCCN2C(=O)[C@@H]2CCCN2C(=O)[C@H](CC(=O)O)NC(=O)[C@H](CO)NC(=O)[C@H](CCCCN)NC(=O)[C@H]([C@@H](C)O)NC(=O)[C@@H]2CSSC[C@H](NC1=O)C(=O)N[C@@H](CO)C(=O)N1CCC[C@@H]1C(=O)N[C@@H](CCC(=O)O)C(=O)N[C@@H](Cc1ccccc1)C(=O)N2) [Example 64] ?
45

These entries and their values trace back to patent US20140213531A1.
